Molecular target: S. aureus DnaE (DNA polymerase III α-subunit homolog from Staphylococcus aureus) (Staphylococcus aureus)
Construct: SaDnaE (S. aureus DnaE residues 1-1065); 6xHis (N); made in house; host or cells: E. coli BL21-AI
Sequence (Q5HF71 whole entry, the tested form may be a part): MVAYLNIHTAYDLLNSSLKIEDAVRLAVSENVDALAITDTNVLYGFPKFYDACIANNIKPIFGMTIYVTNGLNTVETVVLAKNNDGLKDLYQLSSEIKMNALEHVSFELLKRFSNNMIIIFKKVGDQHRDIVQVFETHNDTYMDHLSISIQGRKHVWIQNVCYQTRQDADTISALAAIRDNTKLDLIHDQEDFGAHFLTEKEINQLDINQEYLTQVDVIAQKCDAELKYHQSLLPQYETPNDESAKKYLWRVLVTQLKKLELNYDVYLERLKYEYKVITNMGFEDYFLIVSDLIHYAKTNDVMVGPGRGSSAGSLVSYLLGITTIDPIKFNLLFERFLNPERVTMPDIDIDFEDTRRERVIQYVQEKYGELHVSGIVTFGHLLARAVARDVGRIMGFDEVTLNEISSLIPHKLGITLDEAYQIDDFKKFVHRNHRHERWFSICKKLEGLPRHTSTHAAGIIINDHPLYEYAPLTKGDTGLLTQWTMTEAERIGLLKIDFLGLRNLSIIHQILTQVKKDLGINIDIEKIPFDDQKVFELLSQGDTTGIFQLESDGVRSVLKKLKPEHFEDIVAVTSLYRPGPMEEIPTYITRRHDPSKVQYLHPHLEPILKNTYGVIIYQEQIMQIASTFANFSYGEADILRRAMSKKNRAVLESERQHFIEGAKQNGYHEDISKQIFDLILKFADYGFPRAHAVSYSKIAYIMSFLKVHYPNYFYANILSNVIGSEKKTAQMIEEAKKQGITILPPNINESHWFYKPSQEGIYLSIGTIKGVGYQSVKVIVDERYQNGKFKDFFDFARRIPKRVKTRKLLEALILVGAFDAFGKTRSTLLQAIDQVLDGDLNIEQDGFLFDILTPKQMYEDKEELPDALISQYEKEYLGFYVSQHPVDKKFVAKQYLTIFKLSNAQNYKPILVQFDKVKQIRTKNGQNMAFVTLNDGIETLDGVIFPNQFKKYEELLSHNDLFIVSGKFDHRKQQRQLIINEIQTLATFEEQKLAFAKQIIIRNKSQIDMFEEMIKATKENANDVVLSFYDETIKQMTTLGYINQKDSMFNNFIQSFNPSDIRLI
Assay: biochemical
Type: biochemical
Conditions: S. aureus DnaE IC50
pIC50: −log10 of the molar value.
Quick rule for you: pIC50 at 7 or higher means met, lower means not met.

Solved cases below.
[[record]]
compound = "CO[C@H]1C[C@H]2C=CC3C4[C@H](O)[C@@H](C)[C@@H](OC(=O)c5ccc[nH]5)[C@@H]3O[C@]42/C(C)=C/[C@@H](C)[C@@H]([C@@H](C)OC(=O)C(=O)NCc2ccccc2)OC1=O"
class_assignment = "met"

[[record]]
compound = "C=C1C[C@H]2[C@H]3O[C@]4(/C(C)=C/[C@@H](C)[C@@H]([C@@H](C)O)OC(=O)[C@@H](OC)C[C@@H]14)[C@@H]2[C@H](O)[C@@H](C)[C@H]3OC(=O)c1ccc[nH]1"
class_assignment = "met"

[[record]]
compound = "CO[C@H]1CC2C=C[C@H]3[C@H]4O[C@]2(/C(C)=C/[C@@H](C)[C@@H](C(C)O)OC1=O)[C@@H]3[C@H](O)[C@@H](C)[C@H]4OC(=O)c1cc(-c2ccsc2)c[nH]1 (some centres unmarked)"
class_assignment = "not met"

[[record]]
compound = "CO[C@H]1C[C@H]2C=C[C@H]3[C@H]4O[C@]2(/C(C)=C/[C@@H](C)[C@@H]([C@@H](C)O)OC1=O)[C@@H]3[C@H](O)[C@@H](C)[C@@H]4N"
class_assignment = "not met"

[[record]]
compound = "COC1CC2C=CC3C4OC2(C(C)=CC(C)C(C(C)OC(=O)OCCN(CCO)C(CO)(CO)CO)OC1=O)C3C(O)C(C)C4OC(=O)c1ccc[nH]1 (centres unmarked)"
class_assignment = "met"

[[record]]
compound = "CO[C@H]1C[C@H]2[C@H](O)C[C@H]3[C@H]4O[C@]2(/C(C)=C/[C@@H](C)[C@@H]([C@@H](C)O)OC1=O)[C@@H]3[C@H](O)[C@@H](C)[C@H]4OC(=O)c1ccc[nH]1"
class_assignment = "not met"

[[record]]
compound = "CO[C@H]1C[C@H]2C=C[C@H]3[C@H]4O[C@]2(/C(C)=C/[C@@H](C)[C@@H]([C@@H](C)OC(=O)OCCO)OC1=O)[C@@H]3[C@H](O)[C@@H](C)[C@H]4OC(=O)c1ccc[nH]1"
class_assignment = "met"

[[record]]
compound = "CO[C@H]1CC2C=C[C@H]3[C@H]4O[C@]2(/C(C)=C/[C@@H](C)[C@@H](C(C)O)OC1=O)[C@@H]3[C@H](O)[C@@H](C)[C@H]4OC(=O)c1ccc[nH]1 (some centres unmarked) [Example 145, Nargenicin A1, reference compound]"
class_assignment = "met"


Exam item: decide whether the reported pIC50 for CO[C@H]1CC2C=C[C@H]3[C@H]4O[C@]2(/C(C)=C/[C@@H](C)[C@@H]([C@@H](C)OC(=O)NCCO)OC1=O)[C@@H]3[C@H](O)[C@@H](C)[C@H]4OC(=O)c1ccc[nH]1 (some centres unmarked) is at least 7.
met

Textbook exercise: given the entry `CO[C@H]1C[C@H]2C=C[C@H]3[C@H]4O[C@]2(/C(C)=C/[C@@H](C)[C@@H]([C@@H](C)OC(=O)C[N+]25CC[N+](CC(N)=O)(CC2)CC5)OC1=O)[C@@H]3[C@H](O)[C@@H](C)[C@H]4OC(=O)c1ccc[nH]1.O=S(=O)([O-])C(F)(F)F.[Br-]` , state whether its pIC50 is greater than or equal to 7.
met
